The values you see were collected from PubChem BioAssay AID1159580.

Test: chemical genetic growth profiling, strain panel (AID 1159580);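 further: tested at 20 µM; growth read once vehicle control cultures reached saturation at 30 °C; 1 = growth at the plate median or of vehicle wells; lower values mean less growth of the strain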
Conditions: S. cerevisiae deletion strains, growth OD, locus YJR075W, strain HOC1, stronger effect = lower value
In all, about 5,500 compounds went through this assay and about 2,000 (36%) were called active. Inconclusive results (about 18%) are left out. This is one part of the list.
Parameter: normalized growth. Scope: all listed entries.
Reply briefly: the number, and no unit.

The following compounds have reported results that may help.
COc1ccc(CN(CCN(C)C)c2ccccn2)cc1 = 0.979
O=C(Oc1cc(OC(=O)c2ccccc2)c2c(c1)O[C@H](c1ccc(OC(=O)c3ccccc3)c(OC(=O)c3ccccc3)c1)[C@@H](OC(=O)c1ccccc1)C2)c1ccccc1 = 1.05
O=C(CCc1nc(-c2ccc(Cl)cc2)no1)NNS(=O)(=O)c1cc(Cl)c(Cl)cc1Cl = 0.994
COc1c(N2CCNC(C)C2)c(F)cc2c(=O)c(C(=O)O)cn(C3CC3)c12 (stereo not given) = 0.989
CCn1cc(C(=O)O)c(=O)c2cc(F)c(N3CCNCC3)nc21 = 1.01
COc1cc(OC)c2c(c1)O[C@H](c1cc(OC)c(OC)c(OC)c1)[C@H](OC(=O)c1cc(OC)c(OC)c(OC)c1)C2 = 1
C[C@H]1COc2c(N3CCN(C)CC3)c(F)cc3c(=O)c(C(=O)O)cn1c23 = 0.991
O=C(c1c(F)cccc1F)N1CCN(C(=O)c2c(F)cccc2F)CC1 = 0.988

Data point: CCC[C@H](N[C@@H](C)C(=O)N1[C@H](C(=O)O)C[C@@H]2CCCC[C@@H]21)C(=O)OCC ; normalized growth = 1.02

Lab book: normalized growth of CN(C)CCN(Cc1ccccc1)c1ccccn1 noted as 1.01

###

Test: chemical genetic growth profiling, strain panel (AID 1159580);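 further: tested at 20 µM; growth read once vehicle control cultures reached saturation at 30 °C; 1 = growth at the plate median or of vehicle wells; lower values mean less growth of the strain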
Settings: S. cerevisiae deletion strains, growth OD, locus YJL166W, strain qcr8
The whole screen tested about 5,500 compounds, of which about 2,000 (36%) were called active. Roughly 18% stayed inconclusive and do not appear here. Rule as the data show it: active = normalized growth mostly below about 0.91 (no sharp cut-off); inconclusive = no clear call, values can overlap the other calls; inactive = mostly above about 0.92. Some of the results follow.
Please state which outcome applies, choosing from true (1) (active), false (0) (inactive)

Examples from the recorded data:
CCCCCCCCC(=O)NCc1ccc(O)c(OC)c1 = false (0)
C[n+]1c2cc(N)ccc2cc2ccc(N)cc21 = true (1)
CC#CC1(O)CCC2C3CCC4=CC(=O)CCC4=C3C(c3ccc(N(C)C)cc3)CC21C (centres undefined) = false (0)
C=CCc1ccc(OC)cc1 = false (0)
COC(=O)C[C@H]1C2(C)CC34OC5(C)O[C@@]6([C@H](OC(C)=O)C(OC(C)=O)[C@]7(C)C(/C(=C(/O)C(C)C)C(=O)O[C@H]7c7ccoc7)[C@@]6(O5)[C@H](OC(C)=O)[C@@]3(O)C2OC(=O)C(C)C)[C@]14C (some centres undefined) = false (0)

Q. Returns: the outcome recorded for Cc1ccc(S(=O)(=O)NC(=O)NN2CCCCCC2)cc1 in this assay.
A. false (0)

Q. What did this assay record as the result for COC(=O)/C=C/C(C)=C/C=C/C(C)=C/C=C/C=C(C)/C=C/C=C(C)/C=C/C(=O)O ?
A. false (0)

Q. Which outcome was entered for the molecule NCCS(=O)(=O)O in this test?
A. false (0)

Q. Identify the outcome logged in this assay for the molecule shown: CCC(C)C(=O)O[C@@H]1C[C@@]2(C)[C@H](c3ccoc3)OC(=O)CC23OC2(C)O[C@]14[C@]1(C)[C@@H](CC(=O)OC)C5(C)CC1(O)[C@](O)(C5OC(=O)C1(C)OC1C)[C@@H](OC(C)=O)[C@]34O2 (some centres undefined)
A. false (0)

Q. # outcome recorded in this test, key = CCCCNC(=O)NS(=O)(=O)c1ccc(C)cc1
A. false (0)
